Where do these numbers come from? They come from PubChem BioAssay.

assay: CREB reporter modulators without forskolin, primary screen, cell-based, PC12, CRE-LacZ reporter, unstimulated (AID 1145); settings: no forskolin, luminescence, 4.5 h, higher = more signal, called active from +8 up or from −8 down
Each entry gets Not met if its z-score stays under 0.3, and Met if its z-score is 0.3 or above.

Take a look at these entries with their results.
[
  {
    "molecule": "O=C(CS)NCCCCCCNC(=O)[C@H]1C[C@H]2C(=O)N[C@@H](Cc3ccccc3)C(=O)N2[C@H]1c1cccc(OCCO)c1",
    "class": "Not met"
  },
  {
    "molecule": "Cc1ccc(S[C@]2(C(=O)NC3CC3)CC(=O)N(Cc3ccccc3Cl)[C@@H]2c2ccc(CO)cc2I)cc1",
    "class": "Not met"
  }
]

Given the entry CCCc1cccc(=O)o1 , answer whether its z-score meets or surpasses 0.3. Not met

Check the entry COc1ccc([Si](C)(C)[C@H]2[C@H](CCn3cc([C@H](O)c4ccccc4)nn3)O[C@@]3(C(=O)N(Cc4ccc(N5CCC5=O)cc4)c4ccccc43)[C@@H]2C)cc1 : does z-score equal or exceed 0.3? Met

Has C=C(/C(=C/C[C@@H](OC(=O)c1ccncc1)c1ccc(OCCO)cc1)c1cc(C(=O)OC)ccc1OC)C(C)C a recorded z-score greater than or equal to 0.3? Met

Check this molecule for z-score at or above 0.3: CC=CC(O)C1C=CC2C(=O)N(C)C(=O)C2N1Nc1ccc([N+](=O)[O-])cc1[N+](=O)[O-] (stereo unspecified) Not met

Exam item: decide whether the reported z-score for COc1ccc([Si](C)(C)[C@H]2[C@H](CCO)O[C@@]3(C(=O)N(Cc4cccc(N5CCCCC5=O)c4)c4ccccc43)[C@@H]2C)cc1 is at least 0.3. Met

Exam item: decide whether the reported z-score for COc1ccc([Si](C)(C)[C@H]2[C@H](CCn3cc(CCO)nn3)O[C@@]3(C(=O)N(Cc4ccc(N5C(=O)c6cccc7cccc5c67)cc4)c4ccccc43)[C@@H]2C)cc1 is at least 0.3. Met

Please tell me: is the molecule O=C1NCC(=O)N2[C@@H]1C[C@@H](C(=O)O)[C@H]2c1ccc(O)cc1 at or over 0.3 in terms of z-score? Not met

Is reported z-score greater than or equal to 0.3 here: CC1CC/C=C\[C@H]2OC34C=CCN(CCN5CCOCC5)C(=O)[C@H]3N(CCO)C(=O)[C@@H]4C2C(=O)O1 (stereo partly specified) Not met

Determine whether measured z-score meets or exceeds 0.3 for C[n+]1ccc(CCCO)cc1 Not met

---

test system: Chordin-like protein 2 (CHRDL2); assay: CHRDL2 small-molecule binders, primary screen, biochemical, small-molecule microarray, 635 nm fluorescence (AID 1126); conditions: small-molecule microarray binding, fluorescence 635 nm; higher = more signal;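 further: printed compound slides probed with Chrdl2 protein at 4 µg/mL for 1 h at 4 C; score merges 667 nm emission intensity with signal to noise over three replicate slides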
Parameter composite z-score: see the listing below.
Would you mind answering with just the numeric figure?

Below: 3 compounds and their reported composite z-score.
[
  {
    "structure.notation": "C=C(CCCC)C(=O)CC[C@@H](OC(=O)c1ccccc1-c1ccccc1C(=O)O)c1cccc(OCCO)c1",
    "test.target": "Chordin-like protein 2 (CHRDL2)",
    "measure.name": "composite z-score",
    "readout.value": 1.22
  },
  {
    "structure.notation": "COCCOC(=O)N1C(=O)[C@@]2(c3cc(C#CCC(C(=O)OC)C(=O)OC)ccc31)[C@H](c1ccc(OCCO)cc1)N1[C@H](c3ccccc3)[C@H](c3ccccc3)OC(=O)[C@H]1[C@@H]2C(=O)N1CCN(c2ncccn2)CC1",
    "test.target": "Chordin-like protein 2 (CHRDL2)",
    "measure.name": "composite z-score",
    "readout.value": 0.293
  },
  {
    "structure.notation": "O=C1c2ccccc2[C@](Cc2ccccc2I)(C(=O)NCc2ccccc2)[C@H](c2ccc(CO)cc2)N1C1CCCCC1",
    "test.target": "Chordin-like protein 2 (CHRDL2)",
    "measure.name": "composite z-score",
    "readout.value": 0.271
  }
]

Next compound, please.
Could you share which composite z-score value was measured for CCCC[C@@H]1C[C@H]1[C@@H](NC(=O)c1cccnc1)c1ccc(-c2ccccc2)cc1 ? -1.56

---

assay: MM1S myeloma cell viability, profiling panel, resazurin fluorescence, basal, 24 h, PK04 Diversity Set (AID 1174); settings: called active from +8 up or from −8 down;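 further: MM1S multiple myeloma cell line; test concentration not given here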
Calls of active or inactive are those of the source.
Respond using exactly one of the listed classes: active, inactive

Below are worked cases with known answers.
[
  {
    "molecule": "CC(=O)NCCCC[C@@H]1NC(=O)[C@@H]2C[C@H](C(=O)O)[C@H](c3ccc(O)cc3)N2C1=O",
    "class": "inactive"
  },
  {
    "molecule": "C#CCNC(=O)[C@H](Cc1ccccc1)NC(=O)[C@@H](N=[N+]=[N-])C(C)C",
    "class": "inactive"
  },
  {
    "molecule": "C=C(/C(=C/C[C@@H](OC(=O)c1ccncc1)c1ccccc1OCCO)c1cc(C(=O)OC)ccc1OC)C(C)C",
    "class": "inactive"
  }
]

Hey, what did the test say about O=c1cccc(-c2cccc(Cl)c2)o1 ? inactive

What did this assay record as the result for COc1ccccc1CN1C(=O)c2ccccc2[C@@H](C(=O)NC(C)C)[C@@H]1c1ccc(CO)cc1 ? inactive

// outcome(item) with item = CC(C)C(CO)N1C(=O)[C@]2(C)C3C(=O)OCCC/C=C\[C@H]3OC23C=CCN(c2ccc(Cl)cc2)C(=O)[C@@H]13 (stereo partly specified) inactive

Field: outcome | Entry: O=C1O[C@H](c2ccccc2)[C@H](c2ccccc2)N2[C@H]1[C@@H](C(=O)O)[C@]1(C(=O)Nc3ccccc31)[C@H]2c1ccc(O)cc1 inactive

Hi, do you know how NC(=O)N1C(=O)C2C(C1=O)C1C=C(c3ccc(CO)cc3)C2C(C2CC2)N1Cc1sc2ccccc2c1Cl (stereo unspecified) came out in this test? inactive

Returns: the outcome recorded for C=CCN1C(=O)[C@@]2(O[C@@H](CCO)[C@H]([Si](C)(C)c3ccc(OC)cc3)[C@H]2C)c2cc(N3C(=O)c4ccccc4Oc4ccccc43)ccc21 in this assay. active

Entry CC(C)C(O)C1C=CC2C(=O)N(C)C(=O)C2N1N(c1ccccc1)c1ccccc1 (stereo unspecified) : call = ? inactive

Record request — test call for COC(=O)[C@H](Cc1ccccc1)N1CC(/C=C/C2CC2)=C[C@@H]1[C@@H](O)Cc1ccccc1 inactive

---

test: CREB reporter modulators without forskolin, primary screen, cell-based, PC12, CRE-LacZ reporter, unstimulated (AID 1145); settings: no forskolin, luminescence, 4.5 h, higher = more signal, called active from +8 up or from −8 down
In this section we review reported z-score values for a set of molecules.
The answer should be a number; do not append a unit.

Observe how each entry below is paired with its result.
[
  {
    "molecule": "Cc1ccc(S[C@]2(C(=O)NCC(F)(F)F)CC(=O)N(Cc3ccccc3)[C@@H]2c2ccc(CO)cc2)cc1",
    "z-score": 0.829
  },
  {
    "molecule": "COc1ccc(NN2C(C(O)c3ccccn3)C=CC3C(=O)N(C4CCCCC4)C(=O)C32)cc1 (centres undefined)",
    "z-score": -0.471
  },
  {
    "molecule": "C=CC[C@@H](OC(=O)Nc1ccc(OC)cc1)c1ccc(OCCO)cc1",
    "z-score": 1.29
  }
]

For the molecule shown here, CC(C)CNC(=O)[C@@]1(c2ccc([N+](=O)[O-])cc2)CC(=O)N(C2CCCCC2)[C@@H]1c1ccc(CO)cc1I , give the reported z-score. 0.324

---

test: E. coli acrAB mutant growth effects, primary screen, E. coli filamentation inducers, strain DRC39, OD650, 48 h (AID 1179);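 further: screen aims at cell division blockers that make cells filament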; conditions: E. coli DRC39 delta-acrAB growth, higher = more signal, called active from +8 up or from −8 down
measure.name: z-score
# answer = number (no unit)

[
  {
    "molecule": "C=CCC(OC(C)=O)[C@@H]1[C@@H](N(Cc2cc3ccccc3o2)C(=O)Cc2ccc(F)cc2)c2cc(OCCCO)ccc2N1C(=O)c1ccc2ccccc2n1 (some centres not stated)",
    "readout.value": 0.155
  },
  {
    "molecule": "COCCOC(=O)N1C(=O)[C@@]2(c3cc(C#CC4(O)CCCCCC4)ccc31)[C@H](c1ccccc1OCCO)N1[C@H](c3ccccc3)[C@H](c3ccccc3)OC(=O)[C@H]1[C@@H]2C(N)=O",
    "readout.value": -0.31
  },
  {
    "molecule": "COCCOC(=O)N1C(=O)[C@@]2(c3cc(C#CC4(O)CCCCCC4)ccc31)[C@H](C(N)=O)[C@H]1C(=O)O[C@H](c3ccccc3)[C@H](c3ccccc3)N1[C@@H]2c1ccccc1OCCO",
    "readout.value": -0.719
  }
]

Find the recorded z-score belonging to NCCCCCCNC(=O)[C@H]1C[C@H]2C(=O)N[C@@H](Cc3ccccc3)C(=O)N2[C@H]1c1ccc(O)cc1 and report it. 0.04

For the molecule shown here, C[C@@H]1ON(c2ccc(C(=O)OC(C)(C)C)cc2)[C@H](c2ccc(Br)cc2)[C@H]1C(=O)N1C(=O)OC[C@H]1Cc1ccccc1 , give the reported z-score. 0.46

Please report the recorded z-score for C=CC1c2cc(O)c(OC)cc2CCN1Cc1sc2ccccc2c1Cl (configuration not stated) . -0.404

Data request, read-out z-score, for CC(=O)NCCCC[C@@H]1NC(=O)[C@@H]2C[C@H](C(=O)O)[C@H](c3ccc(O)cc3)N2C1=O -0.301
